Tested on: Min/+ mouse model of intestinal cancer
Assay: Min/+ mouse model of intestinal cancer, intestinal polyp formation
Type: in vivo
Conditions: seven weeks on US17 diet with fatty acid ethyl ester 3% wt. or sulindac 320 ppm
assay metric: mice with large intestine tumors / mice in group (in parentheses)

Example entries and their recorded answers appear below.
INSERT INTO measurements (compound, observed_value) VALUES
  ('CC/C=C\C/C=C\C/C=C\C/C=C\CCCCC(=O)O', '2/10'),
  ('CC/C=C\C/C=C\C/C=C\C/C=C\C/C=C\C/C=C\CCC(=O)O', '9/10');

QUERY: Give the measured mice with large intestine tumors / mice in group (in parentheses) of CCCCC/C=C\C/C=C\C/C=C\CCCCC(=O)O [GLA, γ-linolenic acid, reference compound] .
RESULT: 6/9

QUERY: Give the measured mice with large intestine tumors / mice in group (in parentheses) of CC/C=C\C/C=C\C/C=C\CCCCCCCC(=O)O [Compound A-1, all cis 9,12,15-octadecatrienoic acid] .
RESULT: 5/10

QUERY: Give the measured mice with large intestine tumors / mice in group (in parentheses) of CC1=C(CC(=O)O)c2cc(F)ccc2/C1=C\c1ccc([S+](C)[O-])cc1 (stereo not drawn) [Sulindac, sulindac, reference compound] .
RESULT: 2/9

QUERY: Give the measured mice with large intestine tumors / mice in group (in parentheses) of `CC/C=C\C/C=C\C/C=C\C/C=C\C/C=C\CCCC(=O)O` .
RESULT: 6/10
